# Tested On: T1, Human CD27 ECD, monomeric soluble (construct limits not stated) (human, UniProt P26842 20-191)
# T1 construct: extracellular domain; target of the Biacore assays; also called monomeric soluble CD27; CD27-His
# T1 sequence (P26842 20-191): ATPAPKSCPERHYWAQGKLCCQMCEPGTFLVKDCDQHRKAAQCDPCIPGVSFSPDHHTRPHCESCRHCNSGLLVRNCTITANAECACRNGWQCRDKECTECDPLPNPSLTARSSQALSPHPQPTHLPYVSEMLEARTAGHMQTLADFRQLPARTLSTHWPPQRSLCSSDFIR
# Measurement Notes: Biacore SPR, purified mAb, CD27 ECD
Measurement Type: pKd
Convention used: pKd is expressed as -log10 of the molar concentration.

Guide cases for pKd, answers given:
| Binder | pKd |
| --- | --- |
| M493 (antibody, IgG1, V domains shown, also called H228/L250) VH: QVQLVESGGGLVKPGGSLRLSCAASGFTFSSYSMSWIRQAPGKGLEWVSYIDAGGGFTIYPDSVKGRFTISRDNAKNSLYLQMNSLRAEDTAVYYCARHRGNPFDYWGQGTLVTVSS VL: DIQMTQSPSSLSASVGDRVTITCRASKSVSLDRWSFMHWYQQKPGKAPKLLIYLASNLESGVPSRFSGSGSGTDFTFTISSLQPEDIATYYCQHSRELPWTFGQGTKVEIK | 9.84 |
| M429 (antibody, IgG1, V domains shown, also called H227/L245) VH: QVQLVESGGGLVKPGGSLRLSCAASGFTFSSYGMSWIRQAPGKGLEWVSYIDEGGGQTIYPDSVKGRFTISRDNAKNSLYLQMNSLRAEDTAVYYCARHRGNPFDYWGQGTLVTVSS VL: DIQMTQSPSSLSASVGDRVTITCRASKSVSHVRWSFMHWYQQKPGKAPKLLIYLASKLESGVPSRFSGSGSGTDFTFTISSLQPEDIATYYCQHSRELPWTFGQGTKVEIK | 10.52 |

Now take the following binder into account.
Quickly give me recorded pKd for M526 (antibody, IgG1, V domains shown, also called H222/L249) VH: QVQLVESGGGLVKPGGSLRLSCAASGFTFSSYGMSWIRQAPGKGLEWVSYIDRGGGVTIYPDSVKGRFTISRDNAKNSLYLQMNSLRAEDTAVYYCARHRGNPFDYWGQGTLVTVSS VL: DIQMTQSPSSLSASVGDRVTITCRASKSVSEGRWSFMHWYQQKPGKAPKLLIYVASRLESGVPSRFSGSGSGTDFTFTISSLQPEDIATYYCQHSRELPWTFGQGTKVEIK 9.77
